We begin with a simple list: items and their reported Lipophilic Efficiency (logP).
- Test system: parental HEK cells
- protocol summary: HEK parental Agonist Counterscreen Assay (non-transfected cells)
- Type: cell-based
- experimental setup: HEK Agonist Activity section
Please state the value as a number alone, without comment.

Example entries and their recorded answers appear below.
compound="COc1ccc(CCNC(=O)c2cccc(-c3ccc(OC)nc3)c2)cc1 [SR-01000652579]" endpoint_label="Lipophilic Efficiency (logP)" readout_value=1.08
compound="CCOc1ccc(C(=O)NCCc2ccc(F)cc2)cc1OCC [SR-01000243797]" endpoint_label="Lipophilic Efficiency (logP)" readout_value=1.25
compound="CC(Oc1ccccc1)C(=O)NCCn1ccc2ccccc21 (stereo not shown) [SR-01000124163]" endpoint_label="Lipophilic Efficiency (logP)" readout_value=1.45
compound="O=C(Cn1ncc2c1-c1ccccc1OC2)Nc1ccc(Cl)cc1 [SR-01000152099]" endpoint_label="Lipophilic Efficiency (logP)" readout_value=2.23
compound="COc1cc(OC)cc(C(=O)NNC(=O)COc2cc(C)c(Cl)c(C)c2)c1 [SR-01000358286]" endpoint_label="Lipophilic Efficiency (logP)" readout_value=1.78

Task item: Hello, please tell me recorded Lipophilic Efficiency (logP) for this one: COc1ccc2cc(C3(C)CC(=O)N(CC(=O)N(CC(C)C)CC(C)C)C3=O)ccc2c1 (stereo not shown) [SR-01000054961]
Reply: 1.27

Task item: Hello, please tell me recorded Lipophilic Efficiency (logP) for this one: Cc1ccc(CN2CC34C=CC(O3)C(C(=O)NCCC3=CCCCC3)C4C2=O)cc1 (stereo not shown) [SR-01000550322]
Reply: 1.99

Task item: Hello, please tell me recorded Lipophilic Efficiency (logP) for this one: Cc1ccccc1SCC(=O)NNC(=O)C1CCCCC1 [SR-01000070173]
Reply: 1.83

Task item: Hello, please tell me recorded Lipophilic Efficiency (logP) for this one: O=C(Cn1ncc2c1-c1ccccc1OC2)Nc1ccc(Cl)cc1 [SR-01000098980]
Reply: 1.77

Task item: Hello, please tell me recorded Lipophilic Efficiency (logP) for this one: O=C(O)c1ccccc1C(=O)c1cccc2ccccc12 [SR-01000391835]
Reply: 0.66

Task item: Hello, please tell me recorded Lipophilic Efficiency (logP) for this one: O=C(Cn1nc(Cc2ccncc2)c2ccccc2c1=O)N1CCCc2ccccc21 [SR-01000151917]
Reply: 1.92

Task item: Hello, please tell me recorded Lipophilic Efficiency (logP) for this one: Cc1onc(-c2ccccc2Cl)c1C(=O)N1CCC(Cn2ccnc2C)CC1 [SR-01000925002]
Reply: 1.88

Task item: Hello, please tell me recorded Lipophilic Efficiency (logP) for this one: CCCc1nn(CC(=O)NCc2nc3ccccc3n2C)c(=O)c2cc3ccsc3n12 [SR-01000336681]
Reply: 2.37
